The reader will find AC50 measurements below, all made with Sodium-dependent noradrenaline transporter (Homo sapiens, UniProt P23975).
Sequence (P23975 whole entry): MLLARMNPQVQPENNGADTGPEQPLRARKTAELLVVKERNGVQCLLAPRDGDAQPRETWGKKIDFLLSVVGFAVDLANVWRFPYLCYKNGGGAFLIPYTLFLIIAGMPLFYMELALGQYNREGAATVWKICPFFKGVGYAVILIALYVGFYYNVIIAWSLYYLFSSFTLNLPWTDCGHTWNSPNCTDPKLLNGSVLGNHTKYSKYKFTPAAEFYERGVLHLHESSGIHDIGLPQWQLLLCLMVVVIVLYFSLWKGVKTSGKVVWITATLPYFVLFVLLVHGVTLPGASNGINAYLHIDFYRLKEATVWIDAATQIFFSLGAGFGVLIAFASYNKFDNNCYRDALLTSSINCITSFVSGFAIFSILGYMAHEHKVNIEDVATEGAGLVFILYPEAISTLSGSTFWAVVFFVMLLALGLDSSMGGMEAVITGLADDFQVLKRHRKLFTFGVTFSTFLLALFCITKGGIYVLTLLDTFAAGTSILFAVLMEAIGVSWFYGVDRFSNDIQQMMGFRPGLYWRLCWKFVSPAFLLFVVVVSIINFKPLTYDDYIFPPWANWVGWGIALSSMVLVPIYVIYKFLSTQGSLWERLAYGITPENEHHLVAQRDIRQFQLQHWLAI

CCN(CC)CCn1c(=O)c(Cc2ccc(OC)cc2)nc2ccccc21
> 30 µM
Nc1cc(N2CCCCC2)nc(N)[n+]1[O-]
> 30 µM
CCOC(=O)O[C@]1(C(=O)COC(=O)CC)CC[C@H]2[C@@H]3CCC4=CC(=O)C=C[C@]4(C)[C@H]3[C@@H](O)C[C@@]21C [PREDNICARBATE]
> 10 µM

Input line: Can you look up the measured AC50 of Cc1nnc2n1-c1ccc(Cl)cc1C(c1ccccc1)=NC2 for me?
Output line: > 10 µM

Input line: Repeat with Nc1c2c(nc3ccccc13)CCCC2O (configuration not stated)
Output line: > 30 µM

Input line: Repeat with CCOCC(O)COc1ccc(NC(=O)CC[S+](C)C)cc1 (configuration not stated)
Output line: > 30 µM

Input line: Repeat with CCN1C(=O)NC(c2ccccc2)C1=O (configuration not stated)
Output line: > 30 µM

----------
# AC50 per entry
# tgt: UniProt P06401
# Sequence (P06401 whole entry): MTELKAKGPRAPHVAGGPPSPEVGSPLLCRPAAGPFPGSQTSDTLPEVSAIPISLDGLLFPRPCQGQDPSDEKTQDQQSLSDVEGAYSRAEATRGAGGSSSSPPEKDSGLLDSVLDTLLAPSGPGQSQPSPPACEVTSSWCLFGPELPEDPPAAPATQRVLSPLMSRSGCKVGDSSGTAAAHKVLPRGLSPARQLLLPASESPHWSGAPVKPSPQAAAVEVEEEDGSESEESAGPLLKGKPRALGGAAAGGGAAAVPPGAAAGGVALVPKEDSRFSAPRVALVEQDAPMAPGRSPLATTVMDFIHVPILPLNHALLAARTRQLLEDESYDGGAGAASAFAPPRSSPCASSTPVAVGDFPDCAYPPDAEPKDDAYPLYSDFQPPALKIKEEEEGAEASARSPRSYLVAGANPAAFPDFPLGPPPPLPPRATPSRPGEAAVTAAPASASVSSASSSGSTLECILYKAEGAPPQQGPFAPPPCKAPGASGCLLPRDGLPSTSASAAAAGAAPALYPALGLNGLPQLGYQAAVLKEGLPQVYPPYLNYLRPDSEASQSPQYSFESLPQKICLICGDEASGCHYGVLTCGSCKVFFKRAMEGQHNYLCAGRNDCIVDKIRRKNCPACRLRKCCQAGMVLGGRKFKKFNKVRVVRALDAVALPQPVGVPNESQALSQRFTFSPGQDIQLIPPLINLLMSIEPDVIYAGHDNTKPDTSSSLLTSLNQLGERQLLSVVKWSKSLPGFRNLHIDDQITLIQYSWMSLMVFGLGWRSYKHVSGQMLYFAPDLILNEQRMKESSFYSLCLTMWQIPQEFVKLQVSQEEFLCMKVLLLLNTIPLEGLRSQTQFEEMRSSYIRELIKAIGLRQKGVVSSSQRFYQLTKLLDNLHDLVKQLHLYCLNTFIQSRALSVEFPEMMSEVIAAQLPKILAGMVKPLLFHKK
# Type: functional

Example entries and their recorded answers appear below.
CCC1(C)CC(=O)NC1=O (configuration not stated) [ETHOSUXIMIDE]
> 10 µM
CC(C)NCC(O)COc1ccc(CC(N)=O)cc1 (configuration not stated)
> 30 µM
C[C@]12C=CC(=O)C=C1C(Cl)=C[C@@H]1[C@@H]2[C@@H](O)C[C@@]2(C)[C@H]1CC[C@]2(O)C(=O)CO
> 3 µM
NCC1(CC(=O)O)CCCCC1
> 30 µM

Input line: Can you look up the measured AC50 of CC(C)(CO)c1cc2cc(NC(=O)C3(c4ccc5c(c4)OC(F)(F)O5)CC3)c(F)cc2n1C[C@@H](O)CO for me?
Output line: > 30 µM

Input line: Repeat with Cn1cnc2c(F)c(Nc3ccc(Br)cc3F)c(C(=O)NOCCO)cc21
Output line: > 30 µM

Input line: Repeat with O=C(C[S+]([O-])Cc1ccco1)NC/C=C\COc1cc(CN2CCCCC2)ccn1 (configuration not stated)
Output line: > 10 µM

----------
The reader will find AC50 measurements below, all made with Neuronal acetylcholine receptor subunit alpha-4 (Homo sapiens, UniProt P43681).
Sequence (P43681 whole entry): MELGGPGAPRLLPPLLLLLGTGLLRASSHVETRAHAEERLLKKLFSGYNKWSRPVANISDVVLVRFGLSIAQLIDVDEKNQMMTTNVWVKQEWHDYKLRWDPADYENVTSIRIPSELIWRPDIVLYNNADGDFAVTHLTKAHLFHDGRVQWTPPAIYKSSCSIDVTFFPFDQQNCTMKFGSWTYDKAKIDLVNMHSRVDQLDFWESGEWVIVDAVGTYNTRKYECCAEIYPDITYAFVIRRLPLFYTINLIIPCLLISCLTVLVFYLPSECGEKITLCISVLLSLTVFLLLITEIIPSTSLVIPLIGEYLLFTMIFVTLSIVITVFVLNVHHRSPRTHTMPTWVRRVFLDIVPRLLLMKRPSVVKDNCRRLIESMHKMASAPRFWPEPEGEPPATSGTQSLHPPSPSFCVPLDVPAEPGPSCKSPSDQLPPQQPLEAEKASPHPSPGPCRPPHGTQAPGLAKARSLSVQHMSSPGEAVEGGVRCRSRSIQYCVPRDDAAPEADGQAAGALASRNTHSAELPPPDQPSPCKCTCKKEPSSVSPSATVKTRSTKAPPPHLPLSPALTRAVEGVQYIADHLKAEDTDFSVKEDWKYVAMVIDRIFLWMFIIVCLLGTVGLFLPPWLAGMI

CC(=O)OCC1=C(C(=O)O)N2C(=O)[C@@H](NC(=O)Cc3cccs3)[C@H]2SC1 [CEPHALOTHIN]
> 30 µM
CC(=O)NC[C@H]1CN(c2ccc(N3CCOCC3)c(F)c2)C(=O)O1 [LINEZOLID]
> 30 µM

Input line: // lookup AC50 | system=Neuronal acetylcholine receptor subunit alpha-4 (Homo sapiens, UniProt P43681) | key= CO[C@@H]1[C@@H](OC(N)=O)[C@@H](O)[C@H](Oc2ccc3c(O)c(NC(=O)c4ccc(O)c(CC=C(C)C)c4)c(=O)oc3c2C)OC1(C)C [NOVOBIOCIN]; note: assay procedure not described here
Output line: > 30 µM

Input line: Repeat with C=CC1=C(C(=O)O)N2C(=O)[C@@H](NC(=O)/C(=N\O)c3csc(N)n3)[C@H]2SC1
Output line: > 10 µM

Input line: Repeat with CC(C)C[C@H](NC(=O)[C@H](Cc1ccccc1)NC(=O)c1cnccn1)B(O)O [BORTEZOMIB]
Output line: > 30 µM

Input line: Repeat with C[C@]12C=CC(=O)C=C1C(Cl)=C[C@@H]1[C@@H]2[C@@H](O)C[C@@]2(C)[C@H]1CC[C@]2(O)C(=O)CO [CLOPREDNOL]
Output line: > 30 µM
